Origin of the recorded values: ChEMBL document CHEMBL5608185

EXPERIMENT: Chemical stability of the compound assessed as half life at pH 7.4 by HPLC analysis
Type: physicochemical
PROTOCOL CONDITIONS: buffer
REPORTED PROPERTY: half-life (h)

>>> obs_value("COc1ccc(-c2oc3c4c(cc(O)c3c(=O)c2OC(=O)N[C@H](C(=O)O)C(C)C)OC(C)(C)CC4)cc1")
8.17
>>> obs_value("CC[C@H](C)[C@H](NC(=O)Oc1c(-c2ccc(OC)cc2)oc2c3c(cc(O)c2c1=O)OC(C)(C)CC3)C(=O)O")
4.97
>>> obs_value("COc1ccc(-c2oc3c4c(cc(O)c3c(=O)c2OC(=O)N[C@@H](Cc2ccccc2)C(=O)O)OC(C)(C)CC4)cc1")
6.09
>>> obs_value("COc1ccc(-c2oc3c4c(cc(O)c3c(=O)c2OC(=O)NCC(=O)O)OC(C)(C)CC4)cc1")
1.96

---

EXPERIMENT: Chemical stability of the compound assessed as half life at pH 6.8 by HPLC analysis
Type: physicochemical
PROTOCOL CONDITIONS: buffer
half-life values for the compounds below.
REPORTED PROPERTY: half-life

>>> obs_value("COc1ccc(-c2oc3c4c(cc(O)c3c(=O)c2OC(=O)N[C@@H](Cc2ccccc2)C(=O)O)OC(C)(C)CC4)cc1")
"> 12 h"
>>> obs_value("COc1ccc(-c2oc3c4c(cc(O)c3c(=O)c2OC(=O)N[C@@H](CC(C)C)C(=O)O)OC(C)(C)CC4)cc1")
"> 12 h"
>>> obs_value("COc1ccc(-c2oc3c4c(cc(O)c3c(=O)c2O)OC(C)(C)CC4)cc1")
"> 12 h"
>>> obs_value("COc1ccc(-c2oc3c4c(cc(O)c3c(=O)c2OC(=O)NCC(=O)O)OC(C)(C)CC4)cc1")
"5.21 h"
>>> obs_value("CC[C@H](C)[C@H](NC(=O)Oc1c(-c2ccc(OC)cc2)oc2c3c(cc(O)c2c1=O)OC(C)(C)CC3)C(=O)O")
"> 12 h"
>>> obs_value("COc1ccc(-c2oc3c4c(cc(O)c3c(=O)c2OC(=O)N[C@H](C(=O)O)C(C)C)OC(C)(C)CC4)cc1")
"> 12 h"

---

EXPERIMENT: Drug uptake in human Caco-2 cells at 5 uM incubated for 10 mins in presence of Estrone-3-sulfate by HPLC-MS/MS analysis
Format: ADME, cell-based
PROTOCOL CONDITIONS: caco-2, 10 min
REPORTED PROPERTY: Drug uptake

>>> obs_value("CC[C@H](C)[C@H](NC(=O)Oc1c(-c2ccc(OC)cc2)oc2c3c(cc(O)c2c1=O)OC(C)(C)CC3)C(=O)O")
"Not Active"
>>> obs_value("COc1ccc(-c2oc3c4c(cc(O)c3c(=O)c2OC(=O)N[C@@H](CC(C)C)C(=O)O)OC(C)(C)CC4)cc1")
"Not Active"
>>> obs_value("COc1ccc(-c2oc3c4c(cc(O)c3c(=O)c2OC(=O)N[C@H](C(=O)O)C(C)C)OC(C)(C)CC4)cc1")
"Not Active"

---

EXPERIMENT: Oral bioavailability in rat
Assay type: ADME, organism-based
PROTOCOL CONDITIONS: in vivo
REPORTED PROPERTY: bioavailability

>>> obs_value("COc1ccc(-c2oc3c(CC=C(C)C)c(O)cc(O)c3c(=O)c2O)cc1 [ICARITIN]")
"4.3%"
